// provenance: patent US20140235701

Target: NGF (nerve growth factor) (Homo sapiens, UniProt P01138 P01138:122-241)
Sequence (P01138 122-241, one chain of several): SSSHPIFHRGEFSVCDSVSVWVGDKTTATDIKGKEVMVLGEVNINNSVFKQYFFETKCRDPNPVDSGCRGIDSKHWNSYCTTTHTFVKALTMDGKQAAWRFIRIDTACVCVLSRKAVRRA
Assay comment: cell_activity; neurite; TF-1 0.979
Test settings: tags: R&D Systems; chain copies: 2
pIC50: −log10 of the molar value.

Binder	pIC50
GGGUCCUGUUCAAGAGUUUCCGUCUCGUGAACUGUUACCC (ssRNA, 2'-F C/U, dA, 2'-OH G) [SEQ ID NO: 88]	9.24
